Attribution: patent US12139481B2

System: L. donovani promastigotes
Assay: Antileishmanial Alamar Blue assay on promastigotes
Type: cell-based, Leishmania donovani
Conditions: L. donovani; ratio of molar IC50 to Pentamidine
Provide the recorded X more potent than Pentamidine for the entries that follow.
One number for each entry.

Previously resolved entries follow.
Query: Kindly state the measured X more potent than Pentamidine obtained for CC(=O)[O-].F[P-](F)(F)(F)(F)F.[Ni+2].c1ccc(CN2CCN3CCCN(CC2)CCN(Cc2ccccc2)CC3)cc1 [AW039, [Ni(Bn2PBCyclen)(C2H3O2)]PF6] with L. donovani promastigotes.
Result: 0.14

Query: Cool, now O.[Cl-].[Cl-].[Mn+2].c1ccc(CN2CCCNCCN(Cc3ccccc3)CCCNCC2)cc1 [TJH397A, Mn(Bn2Cyclam)Cl2•H2O]
Result: 1.21

Query: Now give it for CC(=O)[O-].F[P-](F)(F)(F)(F)F.[Co+2].c1ccc(CN2CCN3CCCN(CC2)CCN(Cc2ccccc2)CC3)cc1 [AW038, [Co(Bn2PBCyclen)(C2H3O2)]PF6] too.
Result: 0.17

Query: Could you do the same for CC(=O)[O-].F[P-](F)(F)(F)(F)F.[Zn+2].c1ccc(CN2CCCN3CCN(CCCN(Cc4ccccc4)CC3)CC2)cc1 [RM41, [Zn(Bn2Bcyclam)(OAc)]PF6] , please?
Result: 0.38

Query: Also, Cl.Cl.Cl.Cl.Cl.Cl.Cl.Cl.O.O.O.O.c1cc(CN2CCCN3CCN(CCCNCC2)CC3)cc(CN2CCCN3CCN(CCCNCC2)CC3)c1 [KS226, m-SB-cyclams HCl salt] please.
Result: 0.28

Query: Same question, c1cc(CN2CCCN3CCCN(CCCNCC3)CC2)ccc1CN1CCCN2CCCN(CCCNCC2)CC1 [SLK10, p-H2PBCyclams] this time
Result: 0.20

Query: Cool, now [Br-].[Br-].c1cc(C[N+]23CCCN(CCN4CCCN(CC2)C4)C3)ccc1C[N+]12CCCN(CCN3CCCN(CC1)C3)C2 [SLK17A, [p-(BMBCyclams)]Br2]
Result: 0.23

Query: Note, next up: N=C(N)c1ccc(OCCCCCOc2ccc(C(=N)N)cc2)cc1 [PENT, Pentamidine, reference compound]
Result: 1.00

For every listed record, write down its X more potent than Pentamidine.
1. c1ccc(CN2CCCNCCN(Cc3ccccc3)CCCNCC2)cc1 [BME04, Bn2Cyclam]
2. c1ccc(CN2CCCN3CCN(CCCN(Cc4ccccc4)CC3)CC2)cc1 [JGL45, Bn2Bcyclam]
3. CC(=O)[O-].F[P-](F)(F)(F)(F)F.[Co+2].c1ccc(CN2CCCN3CCCN(CCCN(Cc4ccccc4)CC3)CC2)cc1 [DJD21, [Co(Bn2PBCyclam)(OAc)]PF6]
4. CN1CCCN2CCN(CCCN(Cc3cccc(CN4CCCN5CCN(C)CCCN(CC5)CC4)c3)CC2)CC1.Cl.Cl.Cl.Cl.Cl.Cl.Cl.Cl [TJS04, m-CB-cyclams HCl salt]
5. [Cl-].[Cl-].[Mn+2].c1ccc(CN2CCN3CCN(CC2)CCN(Cc2ccccc2)CC3)cc1 [NS29, Mn(Bn2Bcyclen)Cl2]

Result:
1. 0.77
2. 0.55
3. 0.26
4. 0.50
5. 0.35

---

Test system: L. donovani promastigotes
Assay: Antileishmanial Alamar Blue assay on promastigotes
Assay type: cell-based, Leishmania donovani
Conditions: L. donovani; ratio of molar IC50 to Pentamidine
Decide using X more potent than Pentamidine alone. Strictly below 0.3: t. Equal to or above 0.3: f.

Past entries and their recorded results:
Query: Problem: For the compound Clc1cc(CN2CCN3CCN(CCN(Cc4ccc(CN5CCN6CCN(CC5)CCN(Cc5cc(Cl)nc(Cl)c5)CC6)cc4)CC3)CC2)cc(Cl)n1 [PW111A, p-dcp2-CB-cyclens] , is X more potent than Pentamidine under 0.3?
Result: f

Query: // query: "[Cl-].[Cl-].[Mn+2].c1ccc(CN2CCCN3CCN(CCCN(Cc4ccccc4)CC3)CC2)cc1"
Result: t

Query: Entry to check: O.[Cl][Fe-2]([Cl])([Cl])[Cl].[Fe+2].c1ccc(CN2CCCN3CCCN(CCCN(Cc4ccccc4)CC3)CC2)cc1 [BME09, [Fe(Bn2PBCyclam)][FeCl4]•H2O]
Result: t

Now consider the entry below.
Query: Consider CC(=O)[O-].F[P-](F)(F)(F)(F)F.[Zn+2].c1ccc(CN2CCCNCCN(Cc3ccccc3)CCCNCC2)cc1 [SLK07B, [Zn(Bn2Cyclam)(OAc)]PF6] . Does its X more potent than Pentamidine lie strictly below 0.3?
Result: f
